Data credit: patent EP4603105A1

molecular target: GDP-bound KRAS wild-type protein (Homo sapiens, UniProt P01116); assay: Binding to KRAS by surface plasmon resonance (SPR), dissociation constant KD; settings: 1:1 binding model
Sequence (P01116 1-188 isoform P01116-2): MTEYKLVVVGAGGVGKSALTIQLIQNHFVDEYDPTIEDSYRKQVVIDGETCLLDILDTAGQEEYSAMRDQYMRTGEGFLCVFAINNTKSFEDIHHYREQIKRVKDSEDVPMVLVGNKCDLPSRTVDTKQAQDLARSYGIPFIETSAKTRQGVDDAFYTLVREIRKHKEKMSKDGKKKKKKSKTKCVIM
*1 amine or outer side, *2 acyl side, *3 side chain or, on linkers, in order; H or OH if unused. Where a SMILES comes first, the peptide text is derived from it. Bridges are numbered along the chain shown (N, C = ends). [ ]: non-standard residue; d: D form. The star is where a group is joined. X6 = CC(C)(C)CCN([C@@H](Cc1ccc(C(F)(F)F)cc1)C(=O)[*:2])[*:1]; hPhe(3-Cl-4-CF3) = N[C@@H](CCc1ccc(C(F)(F)F)c(Cl)c1)C(=O)O; NMeGly(cPent) = CN[C@H](C(=O)O)C1CCCC1; NMeD = CN[C@@H](CC(=O)O)C(=O)O; NMeL = CN[C@@H](CC(C)C)C(=O)O; Morpholide = C1CN(*)CCO1; Ac5c = NC1(C(=O)O)CCCC1; Sar = CNCC(=O)O

molecule	Kd
CC[C@H](C)[C@@H]1NC(=O)[C@H](CC(C)C)N(C)C(=O)C[C@@H](C(=O)N2CCOCC2)N(C)C(=O)[C@H](C2CCCC2)N(C)C(=O)C2(CCCC2)NC(=O)[C@@H]2CCCN2C(=O)[C@H](CCc2ccc(C(F)(F)F)c(Cl)c2)NC(=O)CN(C)C(=O)[C@H](Cc2ccc(C(F)(F)F)cc2)N(CCC(C)(C)C)C(=O)CN(C)C(=O)CN(C)C1=O [PP0127] ([NMeL]I[Sar][Sar][X6][Sar][hPhe(3-Cl-4-CF3)]P[Ac5c][NMeGly(cPent)][NMeD]-Morpholide; lactam N-11)	0.92 nM
